# experiment: Specific activity of purified CHI, absorbance decrease at 384 nm, 4-O-methyl butein; also: unit not given here
# Format: biochemical
# condition.parameters: purified CHI in 50 mM PBS, 100 μM substrate, 25° C.
metric.name: Specific activity, 4-O-methyl butein
Answers are plain numbers.

What does the record list as Specific activity, 4-O-methyl butein for CHI9: Chalcone isomerase from Roseburia sp. OM02-15, access no. WP_118702262.1 (protein, Roseburia sp. OM02-15) GEITYQPLRSLIYVDCVKEEYRHKLQHWLYYYHAPESIAKFEPWVTKYAFYNALPTPPQGERFGTYRMQLTEHYWMVNPMSQESLVNSLNEYFPIDAMIWQGTLPENAKEDGFMADGEAARASGGDNGCPPFIFAFLPIFWEQDLKGAGRTMVDGPNYRWQFLVSYPEGHKEDGDQWMMNEVLPAFAAMPEVTRMMTSKVKKEINNCHMDRCVEMWFDGPEEWYHCAVENAASFKKPEWAEYDNFPYLRPQFQFASLFLTDIATSDNLKQYRGYLPMR ?
0.4
